targetEntity: Prostaglandin G/H synthase 1 (Rattus norvegicus, UniProt Q63921); also: assay procedure not described here
Sequence (Q63921 whole entry): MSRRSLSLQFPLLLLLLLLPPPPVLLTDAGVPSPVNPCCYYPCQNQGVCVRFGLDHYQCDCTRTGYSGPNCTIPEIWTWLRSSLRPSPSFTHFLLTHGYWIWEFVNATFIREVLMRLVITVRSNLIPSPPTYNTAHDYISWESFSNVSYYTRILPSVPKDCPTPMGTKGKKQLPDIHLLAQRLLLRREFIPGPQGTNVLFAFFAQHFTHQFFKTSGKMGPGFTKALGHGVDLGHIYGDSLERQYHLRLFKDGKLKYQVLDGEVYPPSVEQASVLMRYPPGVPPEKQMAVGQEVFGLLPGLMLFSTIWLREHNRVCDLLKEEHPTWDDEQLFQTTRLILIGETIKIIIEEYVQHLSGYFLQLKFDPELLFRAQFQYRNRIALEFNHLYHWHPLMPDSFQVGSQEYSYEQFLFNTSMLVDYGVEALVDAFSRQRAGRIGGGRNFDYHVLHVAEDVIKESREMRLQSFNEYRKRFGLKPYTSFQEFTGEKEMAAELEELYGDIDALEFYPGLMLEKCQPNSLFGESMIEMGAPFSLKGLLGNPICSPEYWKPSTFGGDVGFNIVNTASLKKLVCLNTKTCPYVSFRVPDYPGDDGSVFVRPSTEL
Format: functional
Parameter AC50: see the listing below.

compound | AC50
CC[C@@H]([C@H](C)O)n1ncn(-c2ccc(N3CCN(c4ccc(OC[C@@H]5CO[C@@](Cn6cncn6)(c6ccc(F)cc6F)C5)cc4)CC3)cc2)c1=O | > 30 µM
O=C(O)CCNC(=O)c1ccccc1 | > 10 µM
CCCC(CCC)C(N)=O [VALPROMIDE] | > 30 µM
CO[C@H]1/C=C/O[C@@]2(C)Oc3c(C)c(O)c4c(O)c(c(/C=N/N5CCN(C)CC5)c(O)c4c3C2=O)NC(=O)/C(C)=C\C=C\[C@H](C)[C@H](O)[C@@H](C)[C@@H](O)[C@@H](C)[C@H](OC(C)=O)[C@@H]1C | > 30 µM
Nc1cc(-c2ccncc2)c[nH]c1=O | > 30 µM
CC(=O)[C@@]1(O)CC[C@H]2[C@@H]3C=C(Cl)C4=CC(=O)[C@@H]5C[C@@H]5[C@]4(C)[C@H]3CC[C@@]21C | > 10 µM
Cc1cc(C(C)(C)C)cc(C)c1CC1=NCCN1 | > 30 µM
C[C@]12CC[C@@H]3c4ccc(O)cc4C[C@@H](CCCCCCCCC[S+]([O-])CCCC(F)(F)C(F)(F)F)[C@H]3[C@@H]1CC[C@@H]2O (some centres not stated) | > 30 µM
CC(C)COCC(CN(Cc1ccccc1)c1ccccc1)N1CCCC1 (configuration not stated) | > 30 µM
Cc1cc2cc3c(C)cc(=O)oc3c(C)c2o1 | > 10 µM
CC(=O)O[C@]1(C(C)=O)CC[C@H]2[C@@H]3C=C(C)C4=CC(=O)CC[C@@H]4[C@H]3CC[C@@]21C [NOMEGESTROL ACETATE] | > 30 µM
CC(S)C(=O)NCC(=O)O (configuration not stated) | 3.3 µM
COc1ccccc1OCCNCC(O)COc1cccc2[nH]c3ccccc3c12 (configuration not stated) | > 30 µM
NC(=O)CN1CCCC1=O | > 30 µM
CC(CCc1ccc(O)cc1)NCCc1ccc(O)c(O)c1 (configuration not stated) | 5.31 µM
C=CC[C@@H]1/C=C(\C)C[C@H](C)C[C@H](OC)[C@H]2O[C@@](O)(C(=O)C(=O)N3CCCC[C@H]3C(=O)O[C@H](/C(C)=C/[C@@H]3CC[C@@H](O)[C@H](OC)C3)[C@H](C)[C@@H](O)CC1=O)[C@H](C)C[C@@H]2OC [TACROLIMUS ANHYDROUS] | > 30 µM
CCCCCC(=O)O[C@]1(C(C)=O)CC[C@H]2[C@@H]3CCC4=CC(=O)CC[C@]4(C)[C@H]3CC[C@@]21C [HYDROXYPROGESTERONE CAPROATE] | > 30 µM
CNC1=Nc2ccc(Cl)cc2C(c2ccccc2)=[N+]([O-])C1 [CHLORDIAZEPOXIDE] | > 30 µM
CC(C)N(CCC(C(N)=O)(c1ccccc1)c1ccccn1)C(C)C (configuration not stated) [DISOPYRAMIDE] | 13.6 µM
C#C[C@]1(OC(C)=O)CC[C@H]2[C@@H]3CCC4=C/C(=N/O)CC[C@@H]4[C@H]3CC[C@@]21CC [NORGESTIMATE] | 7.8 µM
CCCN[C@H]1CCc2nc(N)sc2C1 [PRAMIPEXOLE] | > 30 µM
CC(C)(C)NCC(O)c1cc(O)cc(O)c1 (configuration not stated) | > 30 µM
CN(C)CCC[C@@]1(c2ccc(F)cc2)OCc2cc(C#N)ccc21 | > 30 µM
CC1(C)S[C@@H]2[C@H](NC(=O)[C@H](N)c3ccccc3)C(=O)N2[C@H]1C(=O)OCOC(=O)[C@@H]1N2C(=O)C[C@H]2S(=O)(=O)C1(C)C | > 30 µM
O=C1CCc2cc(OCCCCc3nnnn3C3CCCCC3)ccc2N1 | > 30 µM
CCN(CC)CCN1C(=O)CN=C(c2ccccc2F)c2cc(Cl)ccc21 | > 30 µM
O=C1CN=C(c2ccccc2)c2cc([N+](=O)[O-])ccc2N1 | > 10 µM
C=C1/C(=C\C=C2/CCC[C@]3(C)[C@@H]([C@H](C)/C=C/[C@@H](O)C4CC4)CC[C@@H]23)C[C@@H](O)C[C@@H]1O | 2.2 µM
CC(C(=O)O)c1ccc(CC2CCCC2=O)cc1 (configuration not stated) | > 30 µM
COc1ccccc1Oc1c(NS(=O)(=O)c2ccc(C(C)(C)C)cc2)nc(-c2ncccn2)nc1OCCO | > 30 µM
O=C1CN=C(c2ccccn2)c2cc(Br)ccc2N1 | > 10 µM
CC(=O)SC[C@@H](C)C(=O)N1CCC[C@H]1C(=O)N[C@@H](Cc1ccccc1)C(=O)O | > 30 µM

* * *

targetEntity: Histamine H2 receptor (Homo sapiens, UniProt P25021); also: assay procedure not described here
Sequence (P25021 whole entry): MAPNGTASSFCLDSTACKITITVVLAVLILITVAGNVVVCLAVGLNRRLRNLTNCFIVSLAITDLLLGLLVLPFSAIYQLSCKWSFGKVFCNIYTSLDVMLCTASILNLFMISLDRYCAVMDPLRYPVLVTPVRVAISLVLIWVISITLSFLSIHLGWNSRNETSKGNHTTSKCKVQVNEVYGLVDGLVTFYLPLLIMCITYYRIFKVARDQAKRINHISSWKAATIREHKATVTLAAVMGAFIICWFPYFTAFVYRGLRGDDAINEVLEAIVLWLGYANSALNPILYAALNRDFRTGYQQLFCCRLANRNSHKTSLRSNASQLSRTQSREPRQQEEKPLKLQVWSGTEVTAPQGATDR
Assay type: functional, cell-based
Below, each of the compounds is paired with its reported AC50 value.
metric: AC50

compound | metric | observed
Nc1ncn([C@H]2C[C@H](O)[C@@H](CO)O2)c(=O)n1 [DECITABINE] | AC50 | > 30 µM
CC(C(=O)O)c1ccc(-c2ccccc2)c(F)c1 (centres undefined) [FLURBIPROFEN] | AC50 | > 10 µM
CC12CC3CC(C)(C1)CC(N)(C3)C2 [MEMANTINE] | AC50 | > 10 µM
CCN(CC)CCN1C(=O)CN=C(c2ccccc2F)c2cc(Cl)ccc21 [FLURAZEPAM] | AC50 | > 30 µM
C=C[C@H]1C[N@@]2CC[C@H]1C[C@@H]2[C@@H](O)c1ccnc2ccc(OC)cc12 [QUINIDINE] | AC50 | > 10 µM
C[C@H](Cc1ccc(O)c(O)c1)[C@@H](C)Cc1ccc(O)c(O)c1 [MASOPROCOL] | AC50 | > 10 µM
CC(C)NCC(O)c1ccc(O)c(O)c1 (centres undefined) [ISOPROTERENOL] | AC50 | > 10 µM
COc1cc2nc(N3CCN(C(=O)C4CCCO4)CC3)nc(N)c2cc1OC (centres undefined) [TERAZOSIN] | AC50 | > 10 µM
CCN(CC)C(=O)Nc1ccc(OCC(O)CNC(C)(C)C)c(C(C)=O)c1 (centres undefined) [CELIPROLOL] | AC50 | > 30 µM

* * *

targetEntity: Sodium-dependent noradrenaline transporter (Homo sapiens, UniProt P23975); also: assay procedure not described here
Sequence (P23975 whole entry): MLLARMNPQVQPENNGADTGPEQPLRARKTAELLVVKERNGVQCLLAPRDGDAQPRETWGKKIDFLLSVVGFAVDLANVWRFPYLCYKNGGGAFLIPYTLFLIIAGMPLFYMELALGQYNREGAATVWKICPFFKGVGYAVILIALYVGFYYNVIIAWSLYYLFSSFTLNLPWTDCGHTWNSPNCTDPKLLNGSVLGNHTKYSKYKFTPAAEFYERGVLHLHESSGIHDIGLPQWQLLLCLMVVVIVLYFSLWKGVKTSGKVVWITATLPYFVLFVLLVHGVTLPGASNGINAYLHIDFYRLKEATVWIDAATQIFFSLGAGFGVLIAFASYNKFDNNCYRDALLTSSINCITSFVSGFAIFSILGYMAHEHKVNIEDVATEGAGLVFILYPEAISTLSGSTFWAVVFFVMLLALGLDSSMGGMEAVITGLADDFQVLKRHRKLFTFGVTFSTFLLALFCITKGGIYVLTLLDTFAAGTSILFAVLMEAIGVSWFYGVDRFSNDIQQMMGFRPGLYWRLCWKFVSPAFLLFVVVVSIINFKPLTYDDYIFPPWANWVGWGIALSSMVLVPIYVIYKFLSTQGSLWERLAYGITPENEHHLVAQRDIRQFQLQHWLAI

compound | targetEntity | AC50
Cn1c(=O)cc(N2CCC[C@@H](N)C2)n(Cc2ccccc2C#N)c1=O [ALOGLIPTIN] | Sodium-dependent noradrenaline transporter (Homo sapiens, UniProt P23975) | > 10 µM
CN(C)CCCNc1c2ccccc2nc2cccc([N+](=O)[O-])c12 [NITRACRINE] | Sodium-dependent noradrenaline transporter (Homo sapiens, UniProt P23975) | > 30 µM
C=C[C@@]1(C)CC(=O)[C@]2(O)[C@@]3(C)[C@@H](O)CCC(C)(C)[C@@H]3[C@H](O)[C@H](OC(C)=O)[C@@]2(C)O1 [COLFORSIN] | Sodium-dependent noradrenaline transporter (Homo sapiens, UniProt P23975) | > 30 µM
CNC1=Nc2ccc(Cl)cc2C(c2ccccc2)=[N+]([O-])C1 [CHLORDIAZEPOXIDE] | Sodium-dependent noradrenaline transporter (Homo sapiens, UniProt P23975) | > 30 µM

* * *

targetEntity: 5-hydroxytryptamine receptor 2A (Homo sapiens, UniProt P28223); also: assay procedure not described here
Sequence (P28223 whole entry): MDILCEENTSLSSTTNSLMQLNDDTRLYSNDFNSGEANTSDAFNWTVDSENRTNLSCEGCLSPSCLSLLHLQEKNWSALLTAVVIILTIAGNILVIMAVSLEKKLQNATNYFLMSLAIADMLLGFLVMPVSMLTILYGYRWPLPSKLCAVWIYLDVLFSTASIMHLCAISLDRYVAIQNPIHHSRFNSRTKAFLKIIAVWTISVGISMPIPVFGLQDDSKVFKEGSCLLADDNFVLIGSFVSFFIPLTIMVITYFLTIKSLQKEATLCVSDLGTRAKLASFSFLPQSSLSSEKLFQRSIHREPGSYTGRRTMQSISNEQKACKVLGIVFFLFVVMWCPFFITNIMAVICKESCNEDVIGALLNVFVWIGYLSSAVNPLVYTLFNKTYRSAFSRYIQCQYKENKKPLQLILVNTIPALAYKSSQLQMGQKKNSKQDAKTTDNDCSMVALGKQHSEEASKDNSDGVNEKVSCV
Type: functional, cell-based
metric: AC50

compound | targetEntity | observed
COc1ccc(-c2noc(CC(=O)O)c2-c2ccc(OC)cc2)cc1 [MOFEZOLAC] | 5-hydroxytryptamine receptor 2A (Homo sapiens, UniProt P28223) | > 30 µM
CCC(COC(=O)c1cc(OC)c(OC)c(OC)c1)(c1ccccc1)N(C)C (configuration not stated) [TRIMEBUTINE] | 5-hydroxytryptamine receptor 2A (Homo sapiens, UniProt P28223) | > 30 µM
COc1cc2c(cc1OC)C(CCc1ccc(Cl)cc1)N(C)CC2 (configuration not stated) [METHOPHOLINE] | 5-hydroxytryptamine receptor 2A (Homo sapiens, UniProt P28223) | > 10 µM
C=C1/C(=C\C=C2/CCC[C@]3(C)[C@@H]([C@H](C)/C=C/[C@@H](O)C4CC4)CC[C@@H]23)C[C@@H](O)C[C@@H]1O [CALCIPOTRIENE] | 5-hydroxytryptamine receptor 2A (Homo sapiens, UniProt P28223) | > 30 µM
CC(=O)O[C@H](CC(=O)[O-])C[N+](C)(C)C [ACETYLCARNITINE] | 5-hydroxytryptamine receptor 2A (Homo sapiens, UniProt P28223) | > 30 µM
CN(C(=O)c1c(O)c2ccccc2n(C)c1=O)c1ccccc1 [ROQUINIMEX] | 5-hydroxytryptamine receptor 2A (Homo sapiens, UniProt P28223) | > 30 µM
O=C1CN=C(c2ccccn2)c2cc(Br)ccc2N1 [BROMAZEPAM] | 5-hydroxytryptamine receptor 2A (Homo sapiens, UniProt P28223) | > 10 µM
